Assay: Measurement of fluorescence internal quantum yield (absolute PL quantum yield measuring apparatus)
Format: physicochemical
Conditions: in chloroform or tetrahydrofuran; excitation at one-photon absorption peak; measured 350-650 nm
Source text: The compound A also tends to emit fluorescent light. The wavelength of fluorescent light emitted by the compound A may be 405 nm or more and 660 nm or less and, in some cases, may be 300 nm or more and 650 nm or less. The quantum yield Φf of fluorescence in the compound A may be 0.05 or more, 0.1 or more, or 0.5 or more. The upper limit of the quantum yield Φf of fluorescence of the compound A is not particularly limited and is, for example, 0.99. […]
Each entry below lists one item and its recorded Fluorescence quantum yield Φf value.
Quick one: just the number, no unit, thanks!

Can you look up the measured Fluorescence quantum yield Φf of `OC(C#Cc1ccc(N(c2ccc(C#CC(O)(c3ccccc3)c3ccccc3)cc2)c2ccc(C#CC(O)(c3ccccc3)c3ccccc3)cc2)cc1)(c1ccccc1)c1ccccc1` for me?
0.3

And then `COc1cc(-c2ccc(-c3ccc(C(=O)c4ccc(OCCOCCOC(C)=O)c(OCCOCCOC(C)=O)c4)cc3)c(OC)c2)ccc1-c1ccc(C(=O)c2ccc(OCCOCCOC(C)=O)c(OCCOCCOC(C)=O)c2)cc1` , what is it?
0

And then `c1ccc2c(c1)Cc1c-2c2c(c3c1-c1ccccc1C3)-c1ccccc1C2` , what is it?
0.1

And then `CCC1(CC)c2ccccc2-c2c1c1c(c3c2C(CC)(CC)c2ccccc2-3)C(CC)(CC)c2ccccc2-1` , what is it?
0.1

And then `CC1(C)c2ccccc2-c2c1c1c(c3c2C(C)(C)c2ccccc2-3)C(C)(C)c2ccccc2-1` , what is it?
0.1
